# measurement-protocol: Estimation of human efficacious dose from rat efficacious exposure and human PK
# measurement-context: human, plasma, oral, 6 μg; estimated, molar
property-measured: Cmax

In [3]: df
Out[3]:
                                   molecule  test_result
0  O=C(O)c1cc(F)c2nc(N3C4CC[C@H]3CC(OCc3c(-c5ccccc5OC(F)(F)F)noc3C3CC3)C4)sc2c1 (stereo partly shown)      ~0.3 nM
